Each entry below carries its recorded normalized growth.
assay: chemical genetic growth profiling, strain panel (AID 1159580);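 further: tested at 20 µM; growth read once vehicle control cultures reached saturation at 30 °C; 1 = growth at the plate median or of vehicle wells; lower values mean less growth of the strain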; settings: S. cerevisiae deletion strains, growth OD, locus YDR334W, strain swr1, active compounds read low
Among all 5,500 compounds or so, about 2,000 (36%) were called active. Roughly 18% stayed inconclusive and do not appear here. The list shows a part of the results.
endpoint.label: normalized growth

INSERT INTO measurements (compound, value_reported) VALUES
  ('COC(=O)CC1C(C)(C(=O)c2ccoc2)CC2OCC34C(CC(=O)OC)C5(C)CC36OC3(C)OC1(C(OC(C)=O)C6(OC(C)=O)C5OC(=O)C(C)C)C24O3 (configuration not stated)', 0.969),
  ('CC(=O)OC[C@@]1(O)C[C@@]23CCC4c5ccoc5CC[C@]4(C)C2CC[C@@H]1C3 (some centres not stated)', 1.01),
  ('CC(C)=CCC/C(C)=C/CO', 0.99),
  ('CC(C)CCCC(C)N (configuration not stated)', 1.03),
  ('CCC[C@@H]1C[C@@H](C(=O)N[C@H]([C@H]2O[C@H](SC)[C@H](O)[C@@H](O)[C@H]2O)[C@H](C)O)N(C)C1', 0.929),
  ('O=C1c2ccccc2C(=O)c2ccccc21', 0.974),
  ('NNCc1ccccc1', 0.99),
  ('CC(C)[C@@H]1CC[C@@H](C)CC1=O', 0.993),
  ('Oc1cc2c(cc1O)C(c1ccccc1)CNCC2 (configuration not stated)', 0.963),
  ('O=C1C=C(O)c2ccccc2C1=O', 0.884),
  ('CCCc1ncc(C[n+]2ccccc2C)c(N)n1', 0.992),
  ('CON', 0.975);
